# TEST_SYSTEM: UniProt:P56528
# Sequence (P56528 whole entry): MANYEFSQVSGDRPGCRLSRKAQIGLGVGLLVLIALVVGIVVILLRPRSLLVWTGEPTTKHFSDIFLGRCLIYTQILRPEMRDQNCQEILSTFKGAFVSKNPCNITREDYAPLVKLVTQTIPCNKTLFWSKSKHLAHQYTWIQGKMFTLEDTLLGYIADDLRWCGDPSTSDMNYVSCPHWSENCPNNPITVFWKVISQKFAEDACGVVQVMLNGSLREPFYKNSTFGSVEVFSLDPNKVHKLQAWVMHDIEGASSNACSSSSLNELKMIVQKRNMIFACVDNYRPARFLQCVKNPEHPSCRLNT
# ASSAY_TEXT: NAD+ cyclase activity assay with mouse recombinant CD38 protein
# CONDITION: 0.6 nM mouse CD38, 15.8 μM e-NAD substrate, fluorescence read-out
# Protocol: Example 5: NAD^+ Cydase Activity Assay with Human or Mouse Recombinant CD38 Protein The following assay was used to determine the ability of compounds of the invention to inhibit the hydrolysis of NAD^+ by the human or mouse enzyme, CD38. Reaction buffer: 40 mM HEPES/NaOH pH 7.5, 250 mM sucrose, 0.01% Tween Final concentrations: 0.6 nM mouse CD38 (4947-AC, Bio-Techne GmbH) 1.9 nM human CD38 (AVI2404, Bio-Techne GmbH) […] Read-out: Fluorescence intensity (extinction 300 nm/emission 410 nm) […]
pIC50: −log10 of the molar value.
Listing of recorded pIC50 by entry.

Study these solved cases before continuing.
>  <COMPOUND>
Cc1cc(C(=O)NC2CCN(C(=O)N(C)C)CC2)nc(-n2ccnc2)c1 [Compound 21A]

>  <pIC50>
8.00 to 9.00

$$$$
>  <COMPOUND>
O=C(N[C@@H]1CCS(=O)(=O)C1)c1cc(C(F)(F)F)cc(-n2ccnc2)n1 [Compound 78A]

>  <pIC50>
8.00 to 9.00

$$$$
>  <COMPOUND>
CNS(=O)(=O)N1CCC(NC(=O)c2cc(C)cc(-n3ccnc3)n2)CC1 [Compound 14A]

>  <pIC50>
8.00 to 9.00

$$$$

# next compound below
// returns reported pIC50 for input CCCS(=O)(=O)N1CCC(NC(=O)c2cc(C)cc(-n3ccnc3)n2)CC1
8.00 to 9.00

Entry source: patent US20250326739A1
